Reference source: patent US4921984A

Readings of Solubility in water for the listed compounds
conditions: water
measure: Solubility in water

{"columns": ["compound", "reported.result"],
 "data": [
  ["CCC1C(=O)[O][Pt-2]2([NH2+]CCCC(C)[NH2+]2)[O]C1=O (racemic)", "> 10 mg/mL"],
  ["CC1CC[NH2+][Pt-2]2([NH2+]C1)[O]C(=O)C1(CCC1)C(=O)[O]2 (racemic)", "> 8 mg/mL"],
  ["CCC1C(=O)[O][Pt-2]2([NH2+]CCC(C)C[NH2+]2)[O]C1=O (racemic)", "> 10 mg/mL"],
  ["CCC(N)CCCN.O=C([O-])C1(C(=O)[O-])CCC1.[Pt+2]", "> 3 mg/mL"]
]}

* * *

test system: mouse leukemia L1210; assay: Antitumor activity test on mouse leukemia L1210 in vivo; details: L1210, dose giving max (T/C), i.p. once a day for 5 days
measure: Opt. dose (mg/kg)

{"columns": ["compound", "target.under.test", "reported.result"],
 "data": [
  ["CC(N)CCCN.O=C([O-])C1(C(=O)[O-])CCC1.[Pt+2]", "mouse leukemia L1210", 64],
  ["CC1CC[NH2+][Pt-2]2([NH2+]C1)[O]C(=O)C(C)(C)C(=O)[O]2 (racemic)", "mouse leukemia L1210", 32],
  ["CC1CC[NH2+][Pt-2]2([NH2+]C1)[O]C(=O)CC(=O)[O]2 (racemic)", "mouse leukemia L1210", 32],
  ["CCC1C(=O)[O][Pt-2]2([NH2+]CCCC(C)[NH2+]2)[O]C1=O (racemic)", "mouse leukemia L1210", 64],
  ["CC1CCC[NH2+][Pt-2]2([NH2+]1)[O]C(=O)C(C)(C)C(=O)[O]2 (racemic)", "mouse leukemia L1210", 64],
  ["N.N.[Cl][Pt][Cl] [cis-Platin, cis-dichlorodiammineplatinum, reference compound]", "mouse leukemia L1210", 4]
]}

* * *

system: mouse leukemia L1210; assay: Antitumor activity test on mouse leukemia L1210 in vivo; settings: L1210, dose giving max (T/C), i.p. once a day for 5 days
measure: log10 Opt. dose (log10 of the value in mg/kg)

{"columns": ["compound", "target.under.test", "log10 Opt. dose"],
 "data": [
  ["CC1(C)CC[NH2+][Pt-2]2([NH2+]C1)[O]C(=O)CC(=O)[O]2", "mouse leukemia L1210", 1.51],
  ["CCC(N)CCCN.O=C([O-])C1(C(=O)[O-])CCC1.[Pt+2]", "mouse leukemia L1210", 1.81],
  ["O=C1[O][Pt-2]2([NH2+]CCCC[NH2+]2)[O]C(=O)C12CCC2", "mouse leukemia L1210", 1.51],
  ["CC1(C)CC[NH2+][Pt-2]2([NH2+]C1)[O]C(=O)C1(CCOCC1)C(=O)[O]2", "mouse leukemia L1210", 1.51],
  ["CC1(C)CC[NH2+][Pt-2]2([NH2+]C1)[O]C(=O)C(C)(C)C(=O)[O]2", "mouse leukemia L1210", 1.81],
  ["CCC(CN)CCN.O=C([O-])C1(C(=O)[O-])CCC1.[Pt+2]", "mouse leukemia L1210", 1.51],
  ["CCC1CCC[NH2+][Pt-2]([Cl])([Cl])[NH2+]1 (racemic)", "mouse leukemia L1210", 0.60],
  ["CC(N)CCCN.O=C([O-])C(=O)[O-].[Pt+2] (centres unmarked)", "mouse leukemia L1210", 0.60],
  ["CC1(C)CCC[NH2+][Pt-2]([Cl])([Cl])[NH2+]1", "mouse leukemia L1210", 0.30],
  ["CCC1C(=O)[O][Pt-2]2([NH2+]CCC(C)C[NH2+]2)[O]C1=O (racemic)", "mouse leukemia L1210", 1.20],
  ["[Cl][Pt-2]1([Cl])[NH2+]CCCC[NH2+]1 [Compound No. 1, cis-Dichloro-1,4-butanediamine platinum]", "mouse leukemia L1210", 0.30],
  ["C[C@H]1CC[NH2+][Pt-2]2([NH2+]C1)[O]C(=O)C1(CCC1)C(=O)[O]2 [15S]", "mouse leukemia L1210", 1.51],
  ["CCC(N)CCCN.O=C([O-])C1(C(=O)[O-])CCOCC1.[Pt+2]", "mouse leukemia L1210", 1.81],
  ["CC1CC[NH2+][Pt-2]2([NH2+]C1)[O]C(=O)C1(CCOCC1)C(=O)[O]2 (racemic)", "mouse leukemia L1210", 0.90],
  ["CC1CC[NH2+][Pt-2]2([NH2+]C1)[O]C(=O)C1(CCC1)C(=O)[O]2 (racemic)", "mouse leukemia L1210", 1.51],
  ["CC1(C)CC[NH2+][Pt-2]([Cl])([Cl])[NH2+]C1", "mouse leukemia L1210", 0.60],
  ["CC(C)(CN)CCN.O=C([O-])C1(C(=O)[O-])CCC1.[Pt+2]", "mouse leukemia L1210", 2.11]
]}
